Just for reference, patent US20060069132A1 is where these values come from.

Property: Plant response rating, Rice; scope: individual molecules
# Test system: rice
# protocol summary: Test B pre-/postemergence herbicide test
# Assay type: in vivo, Oryza sativa
# condition context: preemergence, 125 g ai/ha; 0 to 100 scale, 0 is no effect, 100 is complete control
metric: Plant response rating, Rice

CCOC(=O)c1cccc(NC(=O)c2cc(C(C)(C)C)nn2CC)c1C :: 20
CCC(C)c1cc(C(=O)Nc2cccc(C(C)=NO)c2)n(C)n1 (stereo not drawn) :: 0
CCN(CC)C(=O)c1cc(NC(=O)c2cc(C(C)(C)C)nn2CC)ccc1F :: 0

---

Recorded Morningglory plant response rating (0 to 100 scale) by entry
# Test system: morningglory
# protocol summary: Test B pre-/postemergence herbicide test
# Format: in vivo, Ipomoea coccinea
# condition context: 125 g ai/ha; 0 = no effect, 100 = complete control; preemergence
metric: Morningglory plant response rating (0 to 100 scale)

CCc1nc(C(C)(C)C)sc1C(=O)Nc1cc(C(=O)N(CC)CC)ccc1F :: 10
CCn1nc(C2(C)CC2)cc1C(=O)Nc1cccc(C(=O)N(C)C)c1 :: 10
CCn1nc(C(C)(C)C)cc1C(=O)Nc1cncc(C(=O)N(C)C)c1 :: 0
C=CCNC(=O)c1ccc(F)c(NC(=O)c2sc(CC)nc2C(C)(C)C)c1 :: 0
CCn1nc(C(C)(C)C)cc1C(=O)Nc1cc(C(=O)N(C)C)c(F)cc1F :: 0
C=CCNC(=O)c1cccc(NC(=O)c2sc(C(C)(C)C)nc2CC)c1 :: 20
CCc1nn(C(C)(C)C)cc1C(=O)Nc1ccc(F)c(C(=O)N(CC)CC)c1 :: 0
CCc1cn(C(C)(C)C)nc1C(=O)Nc1cc(C(=O)N(CC)CC)ccn1 :: 0
CCOC(=O)c1cccc(NC(=O)c2cn(C(C)(C)C)nc2CC)c1 :: 0
